Just for reference, paper PMC4764904 is where these values come from.

- Experiment Description: Peptide stability in FBS by residual IP3 production
- Type: in vitro ADME, bovine
- Run Conditions: peptide 1 μM in 100% FBS, 37 °C, 0, 3, 6, 12, 24, 48, 72 h; residual activity read as IP3 production ([3H]-inositol) in HEK293 cells expressing GALR2; mean ± S.E., at least three independent experiments
Marks after values point to notes of the source that are not given here. Where a SMILES comes first, the peptide text is derived from it. [ ]: non-standard residue; d: D form. The star is where a group is joined. Fmoc = O=C(OCC1c2ccccc2-c2ccccc21)*
Property Measured: Half-life activity (h) in FBS

Below are worked cases with known answers.
>  <Molecule>
CSCC[C@H](NC(=O)[C@H](C)NC(=O)[C@H](CCC(N)=O)NC(=O)[C@@H]1CCCN1C(=O)[C@@H](NC(=O)[C@H](Cc1c[nH]c2ccccc12)NC(=O)[C@H](N)CC(N)=O)[C@@H](C)O)C(=O)N[C@@H](CC(C)C)C(=O)N[C@@H](Cc1ccc(O)cc1)C(=O)N[C@@H](CC(C)C)C(=O)N[C@@H](CCCCN)C(=O)NCC(=O)N[C@@H](C)C(=O)N[C@@H](CCC(N)=O)C(N)=O [dN1]

>  <Half-life activity (h) in FBS>
10.3 ± 0.3 ^a h

$$$$
>  <Molecule>
CC(C)C[C@H](NC(=O)[C@H](C)NC(=O)[C@H](C)NC(=O)[C@H](CC(N)=O)NC(=O)[C@@H]1CCCN1C(=O)[C@@H](NC(=O)[C@H](Cc1c[nH]c2ccccc12)NC(=O)[C@H](CC(N)=O)NC(=O)OCC1c2ccccc2-c2ccccc21)[C@@H](C)O)C(=O)N[C@@H](Cc1ccc(O)cc1)C(=O)N[C@@H](CC(C)C)C(=O)N[C@@H](Cc1ccccc1)C(=O)NCC(=O)N1CCC[C@H]1C(=O)N[C@H](CCC(N)=O)C(N)=O [Fmoc-Qu-dQ14] (Fmoc-NWTPNAALYLFGP[dQ]-NH2)

>  <Half-life activity (h) in FBS>
8.4 ± 0.3 ^a h

$$$$
>  <Molecule>
CC(C)C[C@H](NC(=O)[C@H](C)NC(=O)[C@H](C)NC(=O)[C@H](CC(N)=O)NC(=O)[C@@H](C)NC(=O)[C@@H](NC(=O)[C@H](Cc1c[nH]c2ccccc12)NC(=O)[C@H](CC(N)=O)NC(=O)OCC1c2ccccc2-c2ccccc21)[C@@H](C)O)C(=O)N[C@@H](Cc1ccc(O)cc1)C(=O)N[C@@H](CC(C)C)C(=O)N[C@@H](Cc1ccccc1)C(=O)NCC(=O)N1CCC[C@H]1C(=O)N[C@H](CCC(N)=O)C(N)=O [Fmoc-Qu-dA4-dQ14] (Fmoc-NWT[dA]NAALYLFGP[dQ]-NH2)

>  <Half-life activity (h) in FBS>
11.8 ± 0.2 ^a h

$$$$
>  <Molecule>
CSCC[C@H](NC(=O)[C@H](C)NC(=O)[C@H](CCC(N)=O)NC(=O)[C@@H]1CCCN1C(=O)[C@@H](NC(=O)[C@H](Cc1c[nH]c2ccccc12)NC(=O)[C@H](CC(N)=O)NC(C)=O)[C@@H](C)O)C(=O)N[C@@H](CC(C)C)C(=O)N[C@@H](Cc1ccc(O)cc1)C(=O)N[C@@H](CC(C)C)C(=O)N[C@@H](CCCCN)C(=O)NCC(=O)N[C@@H](C)C(=O)N[C@@H](CCC(N)=O)C(N)=O [Ac-N1]

>  <Half-life activity (h) in FBS>
8.7 ± 0.6 ^a h

$$$$
>  <Molecule>
CSCC[C@H](NC(=O)[C@H](C)NC(=O)[C@H](CCC(N)=O)NC(=O)[C@@H](C)NC(=O)[C@@H](NC(=O)[C@H](Cc1c[nH]c2ccccc12)NC(=O)[C@@H](N)CC(N)=O)[C@@H](C)O)C(=O)N[C@@H](CC(C)C)C(=O)N[C@@H](Cc1ccc(O)cc1)C(=O)N[C@@H](CC(C)C)C(=O)N[C@@H](CCCCN)C(=O)NCC(=O)N[C@@H](C)C(=O)N[C@@H](CCC(N)=O)C(N)=O [dA4] (H-NWT[dA]QAMLYLKGAQ-NH2)

>  <Half-life activity (h) in FBS>
8.7 ± 0.4 ^a h

$$$$
>  <Molecule>
CC(C)C[C@H](NC(=O)[C@H](C)NC(=O)[C@H](C)NC(=O)[C@H](CC(N)=O)NC(=O)[C@@H]1CCCN1C(=O)[C@@H](NC(=O)[C@H](Cc1c[nH]c2ccccc12)NC(=O)[C@H](CC(N)=O)NC(=O)OCC1c2ccccc2-c2ccccc21)[C@@H](C)O)C(=O)N[C@@H](Cc1ccc(O)cc1)C(=O)N[C@@H](CC(C)C)C(=O)N[C@@H](Cc1ccccc1)C(=O)NCC(=O)N1CCC[C@H]1C(=O)N[C@@H](CCC(N)=O)C(N)=O [Fmoc-Qu] (Fmoc-NWTPNAALYLFGPQ-NH2)

>  <Half-life activity (h) in FBS>
6.1 ± 0.2 ^a h

$$$$
>  <Molecule>
CSCC[C@H](NC(=O)[C@H](C)NC(=O)[C@H](CCC(N)=O)NC(=O)[C@@H]1CCCN1C(=O)[C@@H](NC(=O)[C@@H](Cc1c[nH]c2ccccc12)NC(=O)[C@@H](N)CC(N)=O)[C@@H](C)O)C(=O)N[C@@H](CC(C)C)C(=O)N[C@@H](Cc1ccc(O)cc1)C(=O)N[C@@H](CC(C)C)C(=O)N[C@@H](CCCCN)C(=O)NCC(=O)N[C@@H](C)C(=O)N[C@@H](CCC(N)=O)C(N)=O [dW2]

>  <Half-life activity (h) in FBS>
4.5 ± 0.6 h

$$$$
>  <Molecule>
CSCC[C@H](NC(=O)[C@H](C)NC(=O)[C@H](CCC(N)=O)NC(=O)[C@@H]1CCCN1C(=O)[C@@H](NC(=O)[C@H](Cc1c[nH]c2ccccc12)NC(=O)[C@@H](N)CC(N)=O)[C@@H](C)O)C(=O)N[C@@H](CC(C)C)C(=O)N[C@@H](Cc1ccc(O)cc1)C(=O)N[C@@H](CC(C)C)C(=O)N[C@@H](CCCCN)C(=O)NCC(=O)N[C@@H](C)C(=O)N[C@H](CCC(N)=O)C(N)=O [dQa14]

>  <Half-life activity (h) in FBS>
5.6 ± 0.2 ^a h

$$$$
>  <Molecule>
CC(C)C[C@H](NC(=O)[C@H](C)NC(=O)[C@H](C)NC(=O)[C@H](CC(N)=O)NC(=O)[C@@H]1CCCN1C(=O)[C@@H](NC(=O)[C@H](Cc1c[nH]c2ccccc12)NC(=O)[C@H](N)CC(N)=O)[C@@H](C)O)C(=O)N[C@@H](Cc1ccc(O)cc1)C(=O)N[C@@H](CC(C)C)C(=O)N[C@@H](Cc1ccccc1)C(=O)NCC(=O)N1CCC[C@H]1C(=O)N[C@@H](CCC(N)=O)C(N)=O [dN1-Qu] (H-[dN]WTPNAALYLFGPQ-NH2)

>  <Half-life activity (h) in FBS>
4.2 ± 0.1 ^a h

$$$$
>  <Molecule>
CSCC[C@H](NC(=O)[C@H](C)NC(=O)[C@H](CCC(N)=O)NC(=O)[C@@H]1CCCN1C(=O)[C@@H](NC(=O)[C@H](Cc1c[nH]c2ccccc12)NC(=O)[C@H](CC(N)=O)NC(=O)OCC1c2ccccc2-c2ccccc21)[C@@H](C)O)C(=O)N[C@@H](CC(C)C)C(=O)N[C@@H](Cc1ccc(O)cc1)C(=O)N[C@@H](CC(C)C)C(=O)N[C@@H](CCCCN)C(=O)NCC(=O)N[C@@H](C)C(=O)N[C@@H](CCC(N)=O)C(N)=O [Fmoc]

>  <Half-life activity (h) in FBS>
14.2 ± 0.2 ^a h

$$$$

Now turn to the next molecule.
Query (molecule): CSCC[C@H](NC(=O)[C@H](C)NC(=O)[C@H](CCC(N)=O)NC(=O)[C@@H]1CCCN1C(=O)[C@@H](NC(=O)[C@H](Cc1c[nH]c2ccccc12)NC(=O)[C@@H](N)CC(N)=O)[C@@H](C)O)C(=O)N[C@@H](CC(C)C)C(=O)N[C@@H](Cc1ccc(O)cc1)C(=O)N[C@@H](CC(C)C)C(=O)N[C@@H](CCCCN)C(=O)NCC(=O)N[C@@H](C)C(=O)N[C@@H](CCC(N)=O)C(N)=O [WT, spexin, reference compound] ; field requested: Half-life activity (h) in FBS
4.1 ± 0.5 h
